tested on: Caco-2; test: cell viability relative to DMSO; higher = less toxic; settings: 72 h; 10 nM
Measured cell viability accompanies every entry in the list below.
Note to self: number, then unit, no commentary.

INSERT INTO results (molecule, obsvalue) VALUES
  ('CC(=O)Nc1ccc(C(=O)NC(C)(C)C)cc1', '99.7%'),
  ('Nc1nonc1/C(=N/O)Nc1ccc(F)c(Cl)c1', '95.2%'),
  ('Nc1n[nH]c2nnc(-c3c(-c4ccccc4)nn4ccccc34)cc12', '107%');

q: Form entry - test system: Caco-2; read-out: cell viability; molecule: CN1CCCCC1CCN1c2ccccc2Sc2ccc([S+](C)[O-])cc21 (centres undefined)
a: 93.9%

q: Entry c1ccc(C(NCc2cccnc2)(c2ccccc2)c2ccccc2)cc1 please
a: 103%

q: And what about the molecule N=C(Nc1ccccc1)c1cccs1 ?
a: 88.4%

q: Next entry: C=CCNC(=O)c1cc([N+](=O)[O-])cc2c(=O)[nH]c(Nc3ccc(Cl)c(Cl)c3)nc12
a: 95.5%

q: Would you kindly repeat that for CCc1ccc2c(-c3cccc(Cl)c3)nc(=O)n(CC)c2n1 ?
a: 95.6%

q: Item: CC[C@H]1OC(=O)C[C@@H](O)[C@H](C)[C@@H](O[C@@H]2O[C@H](C)C[C@H](N(C)C)[C@H]2O)[C@@H](CC=O)C[C@@H](C)C(=O)/C=C/[C@]2(C)O[C@H]2[C@@H]1C
a: 102%

====

As shown below, each of these molecules has a reported cell viability value.
tested on: Calu-3; test: cell viability relative to DMSO; higher = less toxic; settings: 72 h; 1000 nM
Just the number please, in %, no unit attached.

INSERT INTO assay_data (molecule, uom, obsvalue) VALUES
  ('CN(Cc1cnc2nc(N)nc(N)c2n1)c1ccc(C(=O)N[C@@H](CCC(=O)O)C(=O)O)cc1 [methotrexate]', '%', 95.8),
  ('CC(C)(C)CC(C)(C)c1ccc(O)c(Cc2ccc(Cl)cc2Cl)c1', '%', 90.9),
  ('Cn1nnc(-c2ccc(-c3ccc(N4C[C@H](COP(=O)(O)O)OC4=O)cc3F)cn2)n1 [tedizolid-phosphate]', '%', 86.1),
  ('CN1[C@@H]2CC[C@H]1C[C@@H](OC(c1ccccc1)c1ccccc1)C2 [benztropine-mesylate]', '%', 116),
  ('Clc1ccc(N2CCN(Cc3c[nH]c4ncccc34)CC2)cc1', '%', 92.9);

q: Tell me reported cell viability for O=c1ccn([C@@H]2O[C@H](COP(=O)(O)OP(=O)(O)OP(=O)(O)O)[C@@H](O)[C@H]2O)c(=O)[nH]1 , tested with Calu-3.
a: 101

q: Try the molecule Nc1c2ccccc2nc2ccccc12
a: 110

====

test system: U2OS; experiment: relative viability EC50 (midpoint between 100% and the lowest measured viability); higher = less toxic; conditions: 72 h
parameterMeasured: relative viability EC50

In the examples that follow, each entry is paired with its recorded relative viability EC50.
INSERT INTO results (structuresmilesstring, testtarget, obsvalue) VALUES
  ('COc1c(Nc2ccc(S(C)(=O)=O)nc2C)ncnc1OC1CCN(C(=O)OC(C)C)CC1', 'U2OS', '> 10 µM'),
  ('Cc1ccccc1-c1cc(N2CCN(C)CC2)ncc1N(C)C(=O)C(C)(C)c1cc(C(F)(F)F)cc(C(F)(F)F)c1', 'U2OS', '> 10 µM'),
  ('CC(=O)O[C@H]1C(=O)[C@@]2(C)[C@H]([C@H](OC(=O)c3ccccc3)[C@]3(O)C[C@H](OC(=O)[C@H](O)[C@@H](NC(=O)c4ccccc4)c4ccccc4)C(C)=C1C3(C)C)[C@]1(OC(C)=O)CO[C@@H]1C[C@@H]2O', 'U2OS', '0.0128 µM');

q: If you can, please state the reported relative viability EC50 value of CCCCOc1nc(N)c2c(n1)N(Cc1cccc(CN3CCCC3)c1)CC(=O)N2 .
a: > 10 µM

====

system: Vero E6; experiment: cell viability relative to DMSO; higher = less toxic; details: 72 h; 1 nM
Parameter: cell viability. Scope: all listed entries.
# value in %; strip the unit string

# example entries with known answers
INSERT INTO assay_data (compound, parametermeasured, uom, obsvalue) VALUES
  ('CC(C)/N=c1\cc2n(-c3ccc(Cl)cc3)c3ccccc3nc-2cc1Nc1ccc(Cl)cc1', 'cell viability', '%', 101),
  ('CS(=O)(=O)c1ccc(-c2nnc(/C=C/c3nnc(-c4ccc(C#N)cc4)o3)n2-c2ccccc2Cl)nc1', 'cell viability', '%', 99.2),
  ('N=C1N[C@H]2[C@H](CS[C@H]2CCCCC(=O)O)N1', 'cell viability', '%', 110),
  ('Cc1cc(C)nc(NS(=O)(=O)c2ccc(NC(=S)NC(=O)COc3ccc(Br)cc3Cl)cc2)n1', 'cell viability', '%', 93.4),
  ('O=C(CCCCCN1C(=O)c2cccc3cccc(c23)C1=O)NO', 'cell viability', '%', 107);

q: cell viability for N#CC(c1ccccc1)(c1ccccc1)c1ccccc1Cl ?
a: 103

q: Param item: CCC(CC)(NC(=O)C(C)C)C(=O)N[C@@H](CCCNC(=N)N)C(=O)NC1(C(=O)NC(c2ccc(F)cc2)c2ccc(F)cc2)CCCC1
a: 94.2

====

system: Calu-3; experiment: cell viability relative to DMSO; higher = less toxic; conditions: 72 h; 1000 nM
Recorded measurements of cell viability, one per entry
All answers are understood in %, so give the number only.

INSERT INTO assay_data (structuresmilesstring, parametermeasured, uom, obsvalue) VALUES
  ('CCN(CC)CCCCN1c2ccccc2Oc2ccc(Cl)cc21', 'cell viability', '%', 103),
  ('C[C@@]12CC[C@@H]3[C@@](CC[C@H]4[C@@]3(C)CCC[C@@]4(C)C(=O)O)(CC1=O)C2', 'cell viability', '%', 110),
  ('O=C1N[C@@H]2[C@@H](O)[C@@H](O)[C@H](O)[C@@H](CO)N2C1=O', 'cell viability', '%', 90.7),
  ('Cc1nc(C)c(Cl)c(O)c1Cl', 'cell viability', '%', 101),
  ('CC(C)(Cc1c[nH]c2ccc(Cl)cc12)NCCOc1ccccc1OCC1CC1', 'cell viability', '%', 97.4),
  ('CO[C@H]1C[C@@H]2CC[C@@H](C)[C@@](O)(O2)C(=O)C(=O)N2CCCC[C@H]2C(=O)O[C@H]([C@H](C)C[C@@H]2CC[C@H](n3cnnn3)[C@H](OC)C2)CC(=O)[C@H](C)/C=C(\C)[C@@H](O)[C@@H](OC)C(=O)[C@H](C)C[C@H](C)/C=C/C=C/C=C/1C', 'cell viability', '%', 46.3);

q: Which cell viability value belongs to COc1cc(C)c(/C=C/C(C)=C/C=C/C(C)=C/C(=O)O)c(C)c1C ?
a: 83.5

q: Now this one: CCCN(CCC)C1Cc2cc(OC)c(OC)cc2C1
a: 93.7

====

tested on: Calu-3; assay: cell viability relative to DMSO; higher = less toxic; details: 72 h; 10 nM
parameterMeasured: cell viability (%)
Give the number; % is assumed, so skip it.

INSERT INTO measurements (structuresmilesstring, uom, obsvalue) VALUES
  ('O=C(O)COc1cccc(-c2ocnc2-c2nc(-c3ccccc3)c(-c3ccccc3)o2)c1', '%', 95.8),
  ('c1ccc(C(NCc2cccnc2)(c2ccccc2)c2ccccc2)cc1', '%', 86.1),
  ('CC(C)(CC(=O)N1CCCC1)NCC(=O)N1C[C@@H](F)C[C@H]1C#N', '%', 97.5);

Now examine the next entry.
q: Consider the compound O=C(Oc1ccc([N+](=O)[O-])cc1)N1CCC(C(O)(c2ccc3c(c2)OCO3)c2ccc3c(c2)OCO3)CC1 and give its measured cell viability.
a: 115

====

test system: U2OS; test: cell viability relative to DMSO; higher = less toxic; conditions: 72 h; 10000 nM
parameterMeasured: cell viability

Guide cases for cell viability, answers given:
INSERT INTO assay_data (compound, testtarget, obsvalue) VALUES
  ('CC(=O)N(OCc1ccccc1)[C@@H]1c2cc(C#N)ccc2OC(C)(C)[C@H]1O', 'U2OS', '94.8%'),
  ('N=C(N)c1ccc(N2CCN(C3CCN(CC(=O)O)CC3)CC2)cc1', 'U2OS', '102%'),
  ('CC(C)(C)NC(=O)[C@@H](c1cccnc1)N(C(=O)c1ccco1)c1ccc(C(C)(C)C)cc1', 'U2OS', '98.8%'),
  ('CCc1nc(-c2cccc(C)c2)c(-c2ccnc(NC(=O)c3ccccc3)c2)s1', 'U2OS', '85.5%'),
  ('CNC(=O)c1ccccc1Nc1nc(Nc2ccc(N3CCOCC3)cc2OC)ncc1Cl', 'U2OS', '22%'),
  ('COc1cc(OC)cc(-c2ccc3c(-c4ccc(F)cc4)n[nH]c3n2)c1', 'U2OS', '103%'),
  ('CN(C)CCOC(=O)C(c1ccccc1)C1(O)CCCC1 (stereo not given) [cyclopentolate]', 'U2OS', '98.5%'),
  ('O=C(O[C@H]1C[N+]2(CCCOc3ccccc3)CCC1CC2)C(O)(c1cccs1)c1cccs1', 'U2OS', '99.1%'),
  ('CN(C)CCc1ccc(O)cc1', 'U2OS', '97.8%');

As a next step, examine the compound that follows.
q: Look up cell viability: CNCCC=C1c2ccccc2CCc2ccccc21
a: 93.8%
